Provenance of the data: patent US4407806A

test system: Cotton plants; experiment: Cotton Regrowth; assay type: in vivo; details: Gossypium hirsutum, 13 to 18 days, 100% is total inhibition, read-out: Regrowth (percent inhibition of cotton regrowth)
Here the recorded inhibition at 2000 ppm is given for each entry.
Quick reminder: number only, in %, skip the unit.

Recorded results for 5 molecules are shown here.
Inquiry: Would you mind telling me what inhibition at 2000 ppm value was observed for Clc1ccc(COC(c2cccnc2)c2ccc(Cl)cc2Cl)c(Cl)c1 (centres unmarked) [Compound 1] ?
Reply text: 55

Inquiry: Would you mind telling me what inhibition at 2000 ppm value was observed for C=CCOC(c1cccnc1)c1ccc(Cl)cc1Cl (centres unmarked) [Compound 3] ?
Reply text: 0

Inquiry: Would you mind telling me what inhibition at 2000 ppm value was observed for C=C(Cl)COC(c1cccnc1)c1ccc(Cl)cc1Cl (centres unmarked) [Compound 4] ?
Reply text: 0

Inquiry: Would you mind telling me what inhibition at 2000 ppm value was observed for CC(C)(C)c1ccc(COC(c2cccnc2)c2ccc(Cl)cc2Cl)cc1 (centres unmarked) [Compound 6] ?
Reply text: 90

Inquiry: Would you mind telling me what inhibition at 2000 ppm value was observed for FC(F)(F)c1cccc(COC(c2cccnc2)c2ccc(Cl)cc2Cl)c1 (centres unmarked) [Compound 5] ?
Reply text: 65

---
Inquiry: Would you mind telling me what inhibition at 2000 ppm value was observed for OC(c1cccnc1)c1ccc(Cl)cc1Cl (centres unmarked) [Compound 2, 3-pyridyl-2,4-dichlorophenylcarbinol] ?
Reply text: 0

Inquiry: Would you mind telling me what inhibition at 2000 ppm value was observed for c1ccc(COC(c2ccccc2)c2cccnc2)cc1 (centres unmarked) [Compound 7] ?
Reply text: 90

Inquiry: Would you mind telling me what inhibition at 2000 ppm value was observed for FC(F)(F)c1cccc(COC(c2ccccc2)c2cccnc2)c1 (centres unmarked) [Compound 8] ?
Reply text: 65

* * *

test system: Lambsquarter (Chenopodium album); test: Post-emergent herbicidal test; type: in vivo; conditions: 504 h, post-emergence, 33 micrograms/cm^2, 3 weeks, 0-to-100 scale, read-out: Herbicidal Activity Post-Emergence % Control, L'Qtr.
Here the recorded pest or weed control at 5000 ppm, 33 µg/cm2 is given for each entry.
Quick reminder: number only, in %, skip the unit.

Inquiry: Would you mind telling me what pest or weed control at 5000 ppm, 33 µg/cm2 value was observed for FC(F)(F)c1cccc(COC(c2cccnc2)c2ccc(Cl)cc2Cl)c1 (centres unmarked) [Compound 5] ?
Reply text: 63

Inquiry: Would you mind telling me what pest or weed control at 5000 ppm, 33 µg/cm2 value was observed for Clc1ccc(COC(c2cccnc2)c2ccc(Cl)cc2Cl)c(Cl)c1 (centres unmarked) [Compound 1] ?
Reply text: 20

Inquiry: Would you mind telling me what pest or weed control at 5000 ppm, 33 µg/cm2 value was observed for CC(C)(C)c1ccc(COC(c2cccnc2)c2ccc(Cl)cc2Cl)cc1 (centres unmarked) [Compound 6] ?
Reply text: 60

Inquiry: Would you mind telling me what pest or weed control at 5000 ppm, 33 µg/cm2 value was observed for FC(F)(F)c1cccc(COC(c2ccccc2)c2cccnc2)c1 (centres unmarked) [Compound 8] ?
Reply text: 40

Inquiry: Would you mind telling me what pest or weed control at 5000 ppm, 33 µg/cm2 value was observed for c1ccc(COC(c2ccccc2)c2cccnc2)cc1 (centres unmarked) [Compound 7] ?
Reply text: 65

Inquiry: Would you mind telling me what pest or weed control at 5000 ppm, 33 µg/cm2 value was observed for C=CCOC(c1cccnc1)c1ccc(Cl)cc1Cl (centres unmarked) [Compound 3] ?
Reply text: 60

Inquiry: Would you mind telling me what pest or weed control at 5000 ppm, 33 µg/cm2 value was observed for C=C(Cl)COC(c1cccnc1)c1ccc(Cl)cc1Cl (centres unmarked) [Compound 4] ?
Reply text: 55

Inquiry: Would you mind telling me what pest or weed control at 5000 ppm, 33 µg/cm2 value was observed for OC(c1cccnc1)c1ccc(Cl)cc1Cl (centres unmarked) [Compound 2, 3-pyridyl-2,4-dichlorophenylcarbinol] ?
Reply text: 0
